Run description: Solubility of cinacalcet in water as a function of pH
Assay type: physicochemical
Assay conditions: aqueous buffer, pH ranges from about 3 to about 5, read-out: solubility
Observation type: solubility

Entry C[C@@H](NCCCc1cccc(C(F)(F)F)c1)c1cccc2ccccc12 needs its solubility filled in; supply it.
~1600 µg/mL

---

Run description: Solubility of cinacalcet in water as a function of pH
Format: physicochemical
Assay conditions: pH 1, simulated gastric fluid, pH about 1, read-out: solubility
Protocol: Calcium receptor-active compounds are known in the art. One example of a calcium receptor-active compound is cinacalcet HCl, which is described, for example, in U.S. Pat. No. 6,001,884. Such calcium receptor-active compounds may be insoluble or sparingly soluble in water, particularly in their non-ionized state. […] However, when the pH is about 1, the solubility decreases to about 0.1 mg/mL. […]
Observation type: solubility

Input C[C@@H](NCCCc1cccc(C(F)(F)F)c1)c1cccc2ccccc12 [cinacalcet] , output reported solubility.
~100 µg/mL
